Exercise: for every item that follows, state its recorded pIC50.
Measurement target: PI3K-δ (p110δ/p85α) (Homo sapiens (Human), UniProt O00329)
Sequence (O00329 whole entry, species assumed): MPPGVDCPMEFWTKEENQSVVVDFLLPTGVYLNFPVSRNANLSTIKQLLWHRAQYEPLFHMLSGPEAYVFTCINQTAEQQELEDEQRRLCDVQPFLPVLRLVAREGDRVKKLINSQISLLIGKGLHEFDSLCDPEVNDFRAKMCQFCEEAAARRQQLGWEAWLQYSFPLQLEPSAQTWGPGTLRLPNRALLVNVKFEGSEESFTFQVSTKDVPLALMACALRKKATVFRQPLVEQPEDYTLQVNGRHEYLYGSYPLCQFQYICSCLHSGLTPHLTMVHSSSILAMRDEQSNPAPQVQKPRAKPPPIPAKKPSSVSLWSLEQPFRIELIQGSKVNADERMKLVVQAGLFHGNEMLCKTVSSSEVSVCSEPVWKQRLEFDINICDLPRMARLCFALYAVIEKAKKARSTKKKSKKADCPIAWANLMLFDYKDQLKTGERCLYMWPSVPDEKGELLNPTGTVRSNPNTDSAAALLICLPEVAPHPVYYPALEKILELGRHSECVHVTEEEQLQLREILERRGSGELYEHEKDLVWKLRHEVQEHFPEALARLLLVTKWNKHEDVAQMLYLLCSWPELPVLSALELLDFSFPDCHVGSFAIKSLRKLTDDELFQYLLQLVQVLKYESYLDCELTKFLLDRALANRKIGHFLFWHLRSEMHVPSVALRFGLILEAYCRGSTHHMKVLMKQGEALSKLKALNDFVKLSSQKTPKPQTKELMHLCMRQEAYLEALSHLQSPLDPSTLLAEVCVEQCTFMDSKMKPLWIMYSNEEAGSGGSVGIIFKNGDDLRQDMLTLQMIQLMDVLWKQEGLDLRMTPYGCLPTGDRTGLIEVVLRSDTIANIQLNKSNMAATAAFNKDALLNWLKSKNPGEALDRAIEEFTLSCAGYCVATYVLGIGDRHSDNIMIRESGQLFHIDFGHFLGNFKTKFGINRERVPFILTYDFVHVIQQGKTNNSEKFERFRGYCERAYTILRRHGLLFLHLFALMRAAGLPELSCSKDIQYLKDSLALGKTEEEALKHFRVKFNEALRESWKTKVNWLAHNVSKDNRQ
Sequence (P27986 whole entry partner, species assumed): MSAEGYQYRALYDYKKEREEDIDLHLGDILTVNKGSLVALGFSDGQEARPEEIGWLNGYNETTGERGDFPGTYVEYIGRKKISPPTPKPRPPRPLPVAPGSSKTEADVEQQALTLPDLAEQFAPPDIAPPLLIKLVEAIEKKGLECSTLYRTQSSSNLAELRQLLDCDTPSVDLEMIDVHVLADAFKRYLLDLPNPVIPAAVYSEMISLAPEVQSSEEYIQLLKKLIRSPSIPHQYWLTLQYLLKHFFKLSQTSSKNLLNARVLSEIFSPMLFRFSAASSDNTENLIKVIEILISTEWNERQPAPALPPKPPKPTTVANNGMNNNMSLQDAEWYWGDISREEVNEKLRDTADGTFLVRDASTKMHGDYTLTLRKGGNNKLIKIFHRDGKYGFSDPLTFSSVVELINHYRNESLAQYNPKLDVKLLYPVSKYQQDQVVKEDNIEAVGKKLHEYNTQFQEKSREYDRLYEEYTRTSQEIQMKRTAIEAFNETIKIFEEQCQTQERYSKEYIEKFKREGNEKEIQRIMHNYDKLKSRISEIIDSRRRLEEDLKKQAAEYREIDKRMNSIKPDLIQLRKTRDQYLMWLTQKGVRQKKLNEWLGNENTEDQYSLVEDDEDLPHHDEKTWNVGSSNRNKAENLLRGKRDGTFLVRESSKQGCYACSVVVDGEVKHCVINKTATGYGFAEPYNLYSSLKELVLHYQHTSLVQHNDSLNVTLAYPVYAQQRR
Assay procedure: Transcreener KINASE Assay, fluorescent determination of PI3K enzyme activity;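 note: ADP formed by the kinase detected via far-red competitive fluorescence polarization immunoassay after 80 min room-temperature reaction, inhibition relative to 2% DMSO wells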
Would you please state pIC50, meaning minus log10 of the concentration in mol/L, as a bare number?

Summary line: C[C@H](Nc1ncnc(N)c1C#N)c1cc2ncc(Cl)n2nc1-c1cccc(C(F)(F)F)c1 [Compound 48] , PI3K-δ (p110δ/p85α) (Homo sapiens (Human), UniProt O00329), reported pIC50 = 8.05

Bench note, PI3K-δ (p110δ/p85α) (Homo sapiens (Human), UniProt O00329): C[C@H](Nc1ncnc(N)c1Cl)c1cc2ncc(Cl)n2nc1-c1ccccc1 [Compound 40] , pIC50 reads 8.70

The reported pIC50 value, PI3K-δ (p110δ/p85α) (Homo sapiens (Human), UniProt O00329), for C[C@H](Nc1ncnc(N)c1C#N)c1cc2ncc(Cl)n2nc1-c1cccc(O)c1 [Compound 54] reads 8.70

Bench note, PI3K-δ (p110δ/p85α) (Homo sapiens (Human), UniProt O00329): C[C@H](Nc1ncnc2[nH]cnc12)c1cc2ncc(Cl)n2nc1-c1ccccc1F [Compound 13] , pIC50 reads 8.52

The compound C[C@H](Nc1ncnc(N)c1C#N)c1cc2ncc(Cl)n2nc1-c1cccc(S(C)(=O)=O)c1 [Compound 46] on PI3K-δ (p110δ/p85α) (Homo sapiens (Human), UniProt O00329): pIC50 was 8.40

Form field pIC50 for item CC[C@@H](Nc1ncnc2[nH]cnc12)c1cc2ncc(Cl)n2nc1-c1cccc(F)c1 [Compound 44] on PI3K-δ (p110δ/p85α) (Homo sapiens (Human), UniProt O00329): 6.55

Simply: Cc1cc(F)cc(-c2nn3c(Cl)cnc3cc2[C@H](C)Nc2ncnc(N)c2C#N)c1 [Compound 67] , PI3K-δ (p110δ/p85α) (Homo sapiens (Human), UniProt O00329), pIC50 = 8.30

Entry CCC(Nc1ncnc(N)c1C#N)c1cc2ncc(Cl)n2nc1-c1ccccc1F (centres unmarked) [Compound 19] ; assay system PI3K-δ (p110δ/p85α) (Homo sapiens (Human), UniProt O00329); pIC50 recorded at 8.70

Record Cc1cn2nc(-c3ccccc3)c([C@H](C)Nc3ncnc(N)c3C#N)cc2n1 [Compound 58] has PI3K-δ (p110δ/p85α) (Homo sapiens (Human), UniProt O00329) pIC50 equal to 6.86

GET /values?item= C[C@H](Nc1ncnc(N)c1C#N)c1cc2ncc(Cl)n2nc1-c1ccsc1 [Compound 60] &system= PI3K-δ (p110δ/p85α) (Homo sapiens (Human), UniProt O00329) returns pIC50: 9.00

Lab entry: PI3K-δ (p110δ/p85α) (Homo sapiens (Human), UniProt O00329) assay, compound C[C@H](Nc1ncnc(N)c1C#N)c1cc2ncc(Cl)n2nc1-c1cccnc1 [Compound 77] , pIC50 = 8.70

Item: Cc1nnc(-c2c(N)ncnc2N[C@@H](C)c2cc3ncc(Cl)n3nc2-c2ccccc2)o1 [Compound 81] | System: PI3K-δ (p110δ/p85α) (Homo sapiens (Human), UniProt O00329) | pIC50: 8.70

Response field pIC50 (PI3K-δ (p110δ/p85α) (Homo sapiens (Human), UniProt O00329)) for item C[C@H](Nc1ncnc(N)c1-c1cccc(F)c1)c1cc2ncc(Cl)n2nc1-c1ccccc1 [Compound 37] : 6.54

Reading of pIC50 for CCC(Nc1ncnc2[nH]cnc12)c1cc2ncc(Cl)n2nc1-c1ccccc1 (centres unmarked) [Compound 18] with PI3K-δ (p110δ/p85α) (Homo sapiens (Human), UniProt O00329): 8.40

// returns pIC50 for CC(Nc1ncnc2[nH]cc(C#N)c12)c1cc2ncc(Cl)n2nc1-c1ccccc1 (single isomer, unassigned) [Compound 9] with PI3K-δ (p110δ/p85α) (Homo sapiens (Human), UniProt O00329); value = 8.70

Value sought: pIC50, system PI3K-δ (p110δ/p85α) (Homo sapiens (Human), UniProt O00329), item C[C@H](Nc1ncnc(N)c1C#N)c1cc2ncc(Cl)n2nc1-c1cc(F)ccc1F [Compound 35] . Result: 8.40

The recorded pIC50 with PI3K-δ (p110δ/p85α) (Homo sapiens (Human), UniProt O00329) for CC[C@@H](Nc1ncnc(N)c1C#N)c1cc2ncc(Cl)n2nc1-c1cccc(F)c1 [Compound 43] was 6.88

Reading of pIC50 for Cc1cnc2cc([C@H](C)Nc3ncnc(N)c3C#N)c(-c3ccccc3)nn12 [Compound 22] with PI3K-δ (p110δ/p85α) (Homo sapiens (Human), UniProt O00329): 8.70

Record for C[C@@H](c1cc2ncc(Cl)n2nc1-c1ccccc1)n1ccc2c(N)ncnc21 [Compound 27] under target or system PI3K-δ (p110δ/p85α) (Homo sapiens (Human), UniProt O00329): pIC50 reported as 7.60

Per the reported PI3K-δ (p110δ/p85α) (Homo sapiens (Human), UniProt O00329) data, C[C@H](Nc1ncnc(N)c1C#N)c1cc2ncc(Cl)n2nc1-c1ccccc1C(F)(F)F [Compound 45] has pIC50 of 8.52

pIC50 for PI3K-δ (p110δ/p85α) (Homo sapiens (Human), UniProt O00329) with input C[C@@H](c1cc2ncc(Cl)n2nc1-c1ccccc1)N(C)c1ncnc(N)c1C#N [Compound 42] equals 6.47

Readout pIC50 for CC(Nc1ncnc(N)c1C#N)c1cc2nccn2nc1-c1ccccc1 (centres unmarked) [Compound 1] , test system PI3K-δ (p110δ/p85α) (Homo sapiens (Human), UniProt O00329), was 7.55

Lab note: compound Cc1cccc(-c2nn3c(Cl)cnc3cc2[C@H](C)Nc2ncnc(N)c2C#N)c1 [Compound 62] tested on PI3K-δ (p110δ/p85α) (Homo sapiens (Human), UniProt O00329); recorded pIC50 was 8.70

Recorded pIC50 for C[C@H](Nc1ncnc(N)c1C#N)c1cc2ncc(Cl)n2nc1-c1ccc2scnc2c1 [Compound 74] on PI3K-δ (p110δ/p85α) (Homo sapiens (Human), UniProt O00329) was 8.05

Value (pIC50, PI3K-δ (p110δ/p85α) (Homo sapiens (Human), UniProt O00329)) for record C[C@H](Nc1ncnc(N)c1-c1cnn(C)c1)c1cc2ncc(Cl)n2nc1-c1ccccc1 [Compound 57] = 7.21

Form field, pIC50 with PI3K-δ (p110δ/p85α) (Homo sapiens (Human), UniProt O00329), item C[C@H](Nc1ncnc(N)c1C#N)c1cc2ncc(Cl)n2nc1-c1ccccc1O [Compound 69] : 9.00
